System: Bacillus subtilis
Test: cleaved RNA product abundance (RNA/gDNA barcode ratio) relative to median wild-type variant (ratio to wild type); higher = more accumulation of the downstream cleavage product
Details: experiment (reporter, strain, medium): exp 8a: truncated aprE reporter, strain BJT201 with 2% xylose (RNase J1 expressed); cleavage site: glnRA (positions -5 to +31 mutated)
observable: cleaved RNA product abundance
Give the value as a plain number.

Lookup: Specify cleaved RNA product abundance for CGACATGTCCCGCTTCTTTCATTAATCTGTTAGCAACTGTTTTGCTTTATACATTTACCTTTTAAGAGGAGGAAT , system Bacillus subtilis.
Found: 0.247

Lookup: Specify cleaved RNA product abundance for CGACATGTCCCGCTTCTTTCATTAATCCGTTAGCAACTGTTTTACTATATACATTTTCCTTTTAAGAGGAGGAAT , system Bacillus subtilis.
Found: 0.458

Lookup: Specify cleaved RNA product abundance for CGACATGTCCCGCTTCTTTCATTAATCCGTTAGCGACAGTTTTGCTATATACATTTACCTTTTAAGAGGAGGAAT , system Bacillus subtilis.
Found: 0.233

Lookup: Specify cleaved RNA product abundance for CGACATGTCCCGCTTCTTTCATTAATCCGTTACCAACTGTGTTGCTATATACATTTACCTTTTAAGAGGAGGAAT , system Bacillus subtilis.
Found: 0.277

Lookup: Specify cleaved RNA product abundance for CGACATGTCCCGCTTCTTTCATTAATCCGTTAGCAAATGTTTTGCTATATACATTTAAATTTTAAGAGGAGGAAT , system Bacillus subtilis.
Found: 0.806

Lookup: Specify cleaved RNA product abundance for CGACATGTCCCGCTTCTTTCATTAATCCTTTAGCAACTGTTTTGCTATATACATTTATCTTTTAAGAGGAGGAAT , system Bacillus subtilis.
Found: 0.826

Lookup: Specify cleaved RNA product abundance for CGACATGTCCCGCTTCTTTCATTACTCCGTTAGCAACTGTTTTGCAATATACATTTACCTTTTAAGAGGAGGAAT , system Bacillus subtilis.
Found: 0.515

Lookup: Specify cleaved RNA product abundance for CGACATGTCCCGCTTCTTTCATTAATCCGTTAGCAATTGTTTTGCCATATACATTTACCTTTTAAGAGGAGGAAT , system Bacillus subtilis.
Found: 0.156

Lookup: Specify cleaved RNA product abundance for CGACATGTCCCGCTTCTTTCATTAATCCGTTATCAACTGTTTTGCTATATTCATTTACCTTTTAAGAGGAGGAAT , system Bacillus subtilis.
Found: 0.246

Lookup: Specify cleaved RNA product abundance for CGACATGTCCCGCTTCTTTCATTATTCCGTTAACAACTGTTTTGCTATATACTTTTACCTTTTAAGAGGAGGAAT , system Bacillus subtilis.
Found: 0.273

Lookup: Specify cleaved RNA product abundance for CGACATGTCCCGCTTCTTTCATTAATCCGTTCGCAACAGTTTTGCTATATACATTTACCTTTTAAGAGGAGGAAT , system Bacillus subtilis.
Found: 0.419

Lookup: Specify cleaved RNA product abundance for CGACATGTCCCGCTTCTTTCATTACTCCGTTAGCAACTGTTTTGCGATATACATTTACCTTTTAAGAGGAGGAAT , system Bacillus subtilis.
Found: 0.388

Lookup: Specify cleaved RNA product abundance for CGACATGTCCCGCTTCTTTCATTAATCAGTTAACAACTGTTTTGCTATATACATTTACCTTTTAAGAGGAGGAAT , system Bacillus subtilis.
Found: 0.249

Lookup: Specify cleaved RNA product abundance for CGACATGTCCCGCTTCTTTCATTAATCCGTTAGAAACTGCTTTGCTATATACATTTACCTTTTAAGAGGAGGAAT , system Bacillus subtilis.
Found: 0.146

Lookup: Specify cleaved RNA product abundance for CGACATGTCCCGCTTCTTTCATTAATCCGTAAGCAACTGTTTTGCTATATACATTTACCATTTAAGAGGAGGAAT , system Bacillus subtilis.
Found: 0.381

###

Tested on: Bacillus subtilis
Experiment: cleaved RNA product abundance (RNA/gDNA barcode ratio) relative to median wild-type variant (ratio to wild type); higher = more accumulation of the downstream cleavage product
Details: experiment (reporter, strain, medium): exp 2b: truncated aprE reporter, strain BJT200; cleavage site: cggR-gapA (positions -7 to +36 mutated)
observable: cleaved RNA product abundance

Lookup: Tell me measured cleaved RNA product abundance for ACAGACGAAGGAGCCGCAAAGAAGTTATTAAGGGATGAATAATCCCTCAATATATATATCTCTCACTTATTTAAA please.
Found: 0.874

Lookup: Tell me measured cleaved RNA product abundance for ACAGACGAAGGAGCCGCAAAGAAGTTATTAAGGGATGAATAATTCCTCATTATAAATATCTCTCACTTATTTAAA please.
Found: 0.177

Lookup: Tell me measured cleaved RNA product abundance for ACAGACGAAGGAGCCGCAAAGAAGTTATTAAGGCATGAATATTCCCTCAATATAAATATCTCTCACTTATTTAAA please.
Found: 0.119

Lookup: Tell me measured cleaved RNA product abundance for ACAGACGAAGGAGCCGCAAAGAAGTTATTAAGGGATGAATATTCCCTCAATATAAATATCTCTCACTTATTTAAA please.
Found: 0.675

###

Could you please report measured cleaved RNA product abundance for the items listed next?
Tested on: Bacillus subtilis
Test: cleaved RNA product abundance (RNA/gDNA barcode ratio) relative to median wild-type variant (ratio to wild type); higher = more accumulation of the downstream cleavage product
Conditions: experiment (reporter, strain, medium): exp 4a: truncated aprE reporter, strain BJT201 with 2% xylose (RNase J1 expressed); cleavage site: cggR-gapA (positions -7 to +36 mutated)
Give the value as a plain number.

Lookup: Tell me measured cleaved RNA product abundance for ACAGACGAAGGAGCCGCAAAGAAGTTCTTAAGGGATGAATAATCCCTCAATATAAATAACTCTCACTTATTTAAA please.
Found: 0.162

Lookup: Tell me measured cleaved RNA product abundance for ACAGACGAAGGAGCCGCAAATAAGTTATTAAGGGATGAATAATCCCTCAATACAAATATCTCTCACTTATTTAAA please.
Found: 0.106

Lookup: Tell me measured cleaved RNA product abundance for ACAGACGAAGGAGCCGCAAAGAAGTTAATAAGGGATGAATAATCCCTCTATATAAATATCTCTCACTTATTTAAA please.
Found: 0.39

Lookup: Tell me measured cleaved RNA product abundance for ACAGACGAAGGAGCCGCAAAGAAGTTATTAAGGGATGATTAATCCCTCAATAGAAATATCTCTCACTTATTTAAA please.
Found: 0.0935

Lookup: Tell me measured cleaved RNA product abundance for ACAGACGAAGGAGCCGCATAGAAGTTATTAAGGGATTAATAATCCCTCAATATAAATATCTCTCACTTATTTAAA please.
Found: 1.38

Lookup: Tell me measured cleaved RNA product abundance for ACAGACGAAGGAGCCGCAAAGAAGTTATAAAGGGAAGAATAATCCCTCAATATAAATATCTCTCACTTATTTAAA please.
Found: 0.322

Lookup: Tell me measured cleaved RNA product abundance for ACAGACGAAGGAGCCGCAAAGAAGTTATTAAGGGATGAATAATCCCACAATATACATATCTCTCACTTATTTAAA please.
Found: 0.249

###

Tested on: Bacillus subtilis
Assay: cleaved RNA product abundance (RNA/gDNA barcode ratio) relative to median wild-type variant (ratio to wild type); higher = more accumulation of the downstream cleavage product
Details: experiment (reporter, strain, medium): exp 2b: truncated aprE reporter, strain BJT200; cleavage site: cggR-gapA (positions -7 to +36 mutated)
observable: cleaved RNA product abundance
Give the value as a plain number.

Lookup: Tell me measured cleaved RNA product abundance for ACAGACGAAGGAGCCGCAAAGAAGTTAATAAGGGATGAATAATCCCACAATATAAATATCTCTCACTTATTTAAA please.
Found: 0.17

Lookup: Tell me measured cleaved RNA product abundance for ACAGACGAAGGAGCCGCAAAGAAGTTAATAAGGTATGAATAATCCCTCAATATAAATATCTCTCACTTATTTAAA please.
Found: 0.0951

Lookup: Tell me measured cleaved RNA product abundance for ACAGACGAAGGAGCCGCAAAGAAGTTATTAAAGGATGAATAATCCCTCAAAATAAATATCTCTCACTTATTTAAA please.
Found: 0.148

Lookup: Tell me measured cleaved RNA product abundance for ACAGACGAAGGAGCCGCAAAGAAGTTATAAAGGGATGAATAATCCCACAATATAAATATCTCTCACTTATTTAAA please.
Found: 0.175

Lookup: Tell me measured cleaved RNA product abundance for ACAGACGAAGGAGCCGCAAAGAAGTTAGTAAGGGATGAATAATCCTTCAATATAAATATCTCTCACTTATTTAAA please.
Found: 0.29

Lookup: Tell me measured cleaved RNA product abundance for ACAGACGAAGGAGCCGCAAAGAATTTATTAAGTGATGAATAATCCCTCAATATAAATATCTCTCACTTATTTAAA please.
Found: 0.127

Lookup: Tell me measured cleaved RNA product abundance for ACAGACGAAGGAGCCGCAAAGAAGTTATTATGGGATGAATAATCCCTCAATATAAAAATCTCTCACTTATTTAAA please.
Found: 0.279

Lookup: Tell me measured cleaved RNA product abundance for ACAGACGAAGGAGCCGCAAAGAAGTTATTATGGGATGAATAATCTCTCAATATAAATATCTCTCACTTATTTAAA please.
Found: 0.224

Lookup: Tell me measured cleaved RNA product abundance for ACAGACGAAGGAGCCGCAAAGAAGTTATTAAGGGATGTATAAACCCTCAATATAAATATCTCTCACTTATTTAAA please.
Found: 0.448

Lookup: Tell me measured cleaved RNA product abundance for ACAGACGAAGGAGCCGCAAAGAAGTTATTAAGGGATGAATAATACCTCGATATAAATATCTCTCACTTATTTAAA please.
Found: 0.0828

Lookup: Tell me measured cleaved RNA product abundance for ACAGACGAAGGAGCCGCAAAGAAGATGTTAAGGGATGAATAATCCCTCAATATAAATATCTCTCACTTATTTAAA please.
Found: 0.513

Lookup: Tell me measured cleaved RNA product abundance for ACAGACGAAGGAGCCGCTAAGAAGTTATTAAGGCATGAATAATCCCTCAATATAAATATCTCTCACTTATTTAAA please.
Found: 0.115

Lookup: Tell me measured cleaved RNA product abundance for ACAGACGAAGGAGCCGCAAATAAGTTATTAAGGGATGAATAATCCCTCAATATAAAGATCTCTCACTTATTTAAA please.
Found: 0.535

Lookup: Tell me measured cleaved RNA product abundance for ACAGACGAAGGAGCCGCAAAGAAGTTATTAAGTGATGAATAATCCCTCAATATAAATATCTCTCACTTATTTAAA please.
Found: 0.109

Lookup: Tell me measured cleaved RNA product abundance for ACAGACGAAGGAGCCGCAAAGAAGTTATTAAGGTATGAATAAACCCTCAATATAAATATCTCTCACTTATTTAAA please.
Found: 0.0972

Lookup: Tell me measured cleaved RNA product abundance for ACAGACGAAGGAGCCGCAAAGATTTTATTAAGGGATGAATAATCCCTCAATATAAATATCTCTCACTTATTTAAA please.
Found: 1.07

Lookup: Tell me measured cleaved RNA product abundance for ACAGACGAAGGAGCCGCAAAGAATTTATTAAGGGATGAATAATCCCTCAACATAAATATCTCTCACTTATTTAAA please.
Found: 0.298

Lookup: Tell me measured cleaved RNA product abundance for ACAGACGAAGGAGCCGCAAAGAAGTTATAAAGGGATGAATAATCACTCAATATAAATATCTCTCACTTATTTAAA please.
Found: 0.107

Lookup: Tell me measured cleaved RNA product abundance for ACAGACGAAGGAGCCGCAAAGAAGTTATTAAGTGATGAATAATCCCACAATATAAATATCTCTCACTTATTTAAA please.
Found: 0.0986

Lookup: Tell me measured cleaved RNA product abundance for ACAGACGAAGGAGCCGCAAAGAAGTTATTAAGGGATGAACAATCCCTCAATATAAATATCTCTCACTTATTTAAA please.
Found: 0.842

Lookup: Tell me measured cleaved RNA product abundance for ACAGACGAAGGAGCCGCATAGAAGTTATTAAGGGATGAATAATCACTCAATATAAATATCTCTCACTTATTTAAA please.
Found: 0.134

Lookup: Tell me measured cleaved RNA product abundance for ACAGACGAAGGAGCCGCAAAGAAGATATTAAGGGATGAATAATCCCTCTATATAAATATCTCTCACTTATTTAAA please.
Found: 0.362

Lookup: Tell me measured cleaved RNA product abundance for ACAGACGAAGGAGCCGCAAAGAAGTTATTAATGGATGAATAATACCTCAATATAAATATCTCTCACTTATTTAAA please.
Found: 0.0824

Lookup: Tell me measured cleaved RNA product abundance for ACAGACGAAGGAGCCGCAAATAAGTTATTAAGGGATGAATAGTCCCTCAATATAAATATCTCTCACTTATTTAAA please.
Found: 0.852

Lookup: Tell me measured cleaved RNA product abundance for ACAGACGAAGGAGCCGCAAAGAATTTATTATGGGATGAATAATCCCTCAATATAAATATCTCTCACTTATTTAAA please.
Found: 0.266

Lookup: Tell me measured cleaved RNA product abundance for ACAGACGAAGGAGCCGCAAAGAAGTTATTAAGTGATGAATAATCGCTCAATATAAATATCTCTCACTTATTTAAA please.
Found: 0.522

Lookup: Tell me measured cleaved RNA product abundance for ACAGACGAAGGAGCCGCAATGAAGTTATTAAGCGATGAATAATCCCTCAATATAAATATCTCTCACTTATTTAAA please.
Found: 0.0928

Lookup: Tell me measured cleaved RNA product abundance for ACAGACGAAGGAGCCGCAAAGAAGTTTTTAAGGGATGAATAATCCGTCAATATAAATATCTCTCACTTATTTAAA please.
Found: 0.133

Lookup: Tell me measured cleaved RNA product abundance for ACAGACGAAGGAGCCGCAAAGAAGTTATAAAGGGATGAATAATCCCTCAATAAAAATATCTCTCACTTATTTAAA please.
Found: 0.125

Lookup: Tell me measured cleaved RNA product abundance for ACAGACGAAGGAGCCGCAAAGAAATTATTCAGGGATGAATAATCCCTCAATATAAATATCTCTCACTTATTTAAA please.
Found: 0.575
